biological target: human PAR-2 (hPAR-2) receptor expressed in HEK-293 T cells in an endogenous manner (Homo sapiens, UniProt P55085); construct: human PAR-2 (hPAR-2) receptor expressed in HEK-293 T cells in an endogenous manner; endogenous in cells; test: In vitro human PAR-2 functional antagonist activity using calcium assays (Fluo4AM, FLIPR Tetra); conditions: HEK-293 T cells stimulated by an EC80 of the 2-Furoyl-LIGRLO-NH2 peptide after 10 min incubation with compound; 20 concentrations, duplicate, two independent experiments
Sequence (P55085 26-397): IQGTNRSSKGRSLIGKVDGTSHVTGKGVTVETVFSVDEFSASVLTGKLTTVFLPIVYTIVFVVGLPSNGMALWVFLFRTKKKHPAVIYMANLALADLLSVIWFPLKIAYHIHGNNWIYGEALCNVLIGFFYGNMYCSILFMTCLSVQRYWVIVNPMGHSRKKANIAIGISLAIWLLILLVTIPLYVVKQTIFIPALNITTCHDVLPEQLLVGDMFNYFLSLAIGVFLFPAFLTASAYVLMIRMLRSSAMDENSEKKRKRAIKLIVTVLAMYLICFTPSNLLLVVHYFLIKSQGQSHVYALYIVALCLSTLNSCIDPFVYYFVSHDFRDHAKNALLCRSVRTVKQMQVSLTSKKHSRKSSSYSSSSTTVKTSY
pIC50: −log10 of the molar value.
PROPERTY NAME: pIC50

Please review the entries below; each comes with its answer.
>>> measured_value("CC(C)Cn1cc(-c2ccc(Cl)cc2F)c2ccc(C(=O)N3CCNC(=O)C3(C)C)nc21")
"5.00 to 7.70"
>>> measured_value("CC(C)(C)n1cc(-c2ccc(Cl)c(F)c2)c2ccc(C(=O)N3CCC4(CC3)NC(=O)NC4=O)nc21")
"5.00 to 7.70"
>>> measured_value("CC(C)Cn1cc(-c2ccncc2)c2ccc(C(=O)N3CCNC(=O)C3(C)C)nc21")
"< 5.00"
>>> measured_value("CC(C)(C)c1nc(-c2ccc(Cl)cc2)n2ccc(C(=O)N3CCN(c4ccc(C(=O)O)cn4)CC3(C)C)nc12")
"5.00 to 7.70"
>>> measured_value("CC1(C)C(=O)NCCN1C(=O)c1ccc2c(-c3ccc(Cl)c(F)c3)cn(CCN3CCCC3=O)c2n1")
"5.00 to 7.70"
>>> measured_value("CC1(C)C(=O)NCCN1C(=O)c1ccc2c(-c3ccc(Cl)c(F)c3)cn(CCn3cncn3)c2n1")
"5.00 to 7.70"
>>> measured_value("CC(C)Cn1cc(-c2ccc(Cl)c(F)c2)c2ccc(C(=O)N3CCNC(=O)C3(C)C)nc21")
"> 7.70"

Then there is this molecule:
Entry `CC(C)(C)n1cc(-c2ccc(Cl)c(F)c2)c2ccc(C(=O)N3CCCNC(=O)C3)nc21` , pIC50 reported as 5.00 to 7.70
